Catalogue of compounds with associated pKi
- target.or.system: human NK2 receptor (Homo sapiens)
- Construct: expressed in transfected cells; host or cells: COS cells
- protocol.text: Test for binding to human NK2 receptor
- stated.conditions: COS cells expressing human NK2 receptor, [3H]SR 48968 1 nM; Ki from IC50 and Kd; read-out: Ki
Where a name gives a salt, the structure may show the parent alone.
pKi (log units): -log10 of the concentration in mol/L.

Memo: `CN(CCN1CCC(OC(=O)Nc2ccccc2-c2ccccc2)CC1)C(=O)CCCCCNc1ccc(C(=O)N(C)CCCN(C)C(=O)CO[C@H]2Cc3ccccc3C23CCN(CC[C@@]2(c4ccc(F)cc4)CN(C(=O)c4cc(C(F)(F)F)cc(C(F)(F)F)c4)CO2)CC3)cc1` , reported pKi: 9.28

Please examine the following record next.
Memo: CN(CCN1CCC(OC(=O)Nc2ccccc2-c2ccccc2)CC1)C(=O)CCCCN(C)c1ccc(C(=O)N(C)CCCN(C)C(=O)CO[C@H]2Cc3ccccc3C23CCN(CC[C@@]2(c4ccc(F)cc4)CN(C(=O)c4cc(C(F)(F)F)cc(C(F)(F)F)c4)CO2)CC3)cc1 [Example 38, trihydrochloride] , reported pKi: 9.05

---

Catalogue of compounds with associated ED50
- target.or.system: neurokinin NK2 receptor (Cavia porcellus)
- Construct: Using healthy guinea pigs (body weight, 350 to 550 g; Hartley male guinea pigs); from tissue; host or cells: live anaesthetised Hartley male guinea pigs (airway, in vivo)
- Sequence (Q64077 whole entry): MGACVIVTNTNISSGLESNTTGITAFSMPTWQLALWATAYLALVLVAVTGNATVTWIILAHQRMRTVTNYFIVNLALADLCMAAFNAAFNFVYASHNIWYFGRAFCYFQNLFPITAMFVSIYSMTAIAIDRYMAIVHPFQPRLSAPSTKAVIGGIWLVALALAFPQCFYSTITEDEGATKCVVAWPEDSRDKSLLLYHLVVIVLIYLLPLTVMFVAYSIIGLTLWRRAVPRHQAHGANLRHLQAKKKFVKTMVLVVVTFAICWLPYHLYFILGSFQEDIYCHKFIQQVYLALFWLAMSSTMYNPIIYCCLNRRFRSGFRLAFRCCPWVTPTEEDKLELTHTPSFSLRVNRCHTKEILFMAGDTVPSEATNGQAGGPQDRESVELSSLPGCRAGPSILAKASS
- protocol.text: Effect of suppressing neurokinin A-induced airway contraction (in vivo, intratracheal administration)
- Parameters: species or system guinea pig
- stated.conditions: guinea pig; guinea pigs, intratracheal administration 60 minutes before 4 μg/kg i.v. NKA; AUC of increase in airway pressure over 10 minutes; read-out: ID50 (the source's name)
Structures can show the parent of a compound that is named as a salt.
Give the value, in units of mg/kg, as a plain number.

Answered cases to consult:
Memo: CN(CCN1CCC(OC(=O)Nc2ccccc2-c2ccccc2)CC1)C(=O)CCCCCNc1cccc(C(=O)N(C)CCCN(C)C(=O)CO[C@H]2Cc3ccccc3C23CCN(CC[C@@]2(c4ccc(F)cc4)CN(C(=O)c4cc(C(F)(F)F)cc(C(F)(F)F)c4)CO2)CC3)c1 [Example 43, trihydrochloride] , reported ED50: 0.0241

Memo: Cc1nc(NCCCCCC(=O)N(C)CCN2CCC(OC(=O)Nc3ccccc3-c3ccccc3)CC2)sc1C(=O)N(C)CCCN(C)C(=O)CO[C@H]1Cc2ccccc2C12CCN(CC[C@@]1(c3ccc(F)cc3)CN(C(=O)c3cc(C(F)(F)F)cc(C(F)(F)F)c3)CO1)CC2 [Example 105, trihydrochloride] , reported ED50: 0.0136

Memo: `CN(CCN1CCC(OC(=O)Nc2ccccc2-c2ccccc2)CC1)C(=O)CCN(C)c1ccc(C(=O)N(C)CCCN(C)C(=O)CO[C@H]2Cc3ccccc3C23CCN(CC[C@@]2(c4ccc(F)cc4)CN(C(=O)c4cc(C(F)(F)F)cc(C(F)(F)F)c4)CO2)CC3)cc1` , reported ED50: 0.039

Memo: CN(CCN1CCC(OC(=O)Nc2ccccc2-c2ccccc2)CC1)C(=O)CCCNc1ccc(C(=O)N(C)CCCN(C)C(=O)CO[C@H]2Cc3ccccc3C23CCN(CC[C@@]2(c4ccc(F)cc4)CN(C(=O)c4cc(C(F)(F)F)cc(C(F)(F)F)c4)CO2)CC3)cc1 [Example 34, trihydrochloride] , reported ED50: 0.03

Memo: CN(CCN1CCC(OC(=O)Nc2ccccc2-c2ccccc2)CC1)C(=O)CCCCNc1ccc(C(=O)N(C)CCCN(C)C(=O)CO[C@H]2Cc3ccccc3C23CCN(CC[C@@]2(c4ccc(F)cc4)CN(C(=O)c4cc(C(F)(F)F)cc(C(F)(F)F)c4)CO2)CC3)cc1 [Example 32, trihydrochloride] , reported ED50: 0.0356

Next:
Memo: `CN(CCN1CCC(OC(=O)Nc2ccccc2-c2ccccc2)CC1)C(=O)CCCCCNc1ccc(C(=O)N(C)CCCN(C)C(=O)CO[C@H]2Cc3ccccc3C23CCN(CC[C@@]2(c4ccc(F)cc4)CN(C(=O)c4cc(C(F)(F)F)cc(C(F)(F)F)c4)CO2)CC3)nc1` , reported ED50: 0.0374

Memo: CN(CCN1CCC(OC(=O)Nc2ccccc2-c2ccccc2)CC1)C(=O)CCOCCNc1ccc(C(=O)N(C)CCCN(C)C(=O)CO[C@H]2Cc3ccccc3C23CCN(CC[C@@]2(c4ccc(F)cc4)CN(C(=O)c4cc(C(F)(F)F)cc(C(F)(F)F)c4)CO2)CC3)cc1 [Example 29, trihydrochloride] , reported ED50: 0.0438

---

Catalogue of molecules with associated Ki
- target.or.system: human NK2 receptor (Homo sapiens, UniProt P21452)
- Construct: expressed in transfected cells; host or cells: COS cells
- Sequence (P21452 1-398): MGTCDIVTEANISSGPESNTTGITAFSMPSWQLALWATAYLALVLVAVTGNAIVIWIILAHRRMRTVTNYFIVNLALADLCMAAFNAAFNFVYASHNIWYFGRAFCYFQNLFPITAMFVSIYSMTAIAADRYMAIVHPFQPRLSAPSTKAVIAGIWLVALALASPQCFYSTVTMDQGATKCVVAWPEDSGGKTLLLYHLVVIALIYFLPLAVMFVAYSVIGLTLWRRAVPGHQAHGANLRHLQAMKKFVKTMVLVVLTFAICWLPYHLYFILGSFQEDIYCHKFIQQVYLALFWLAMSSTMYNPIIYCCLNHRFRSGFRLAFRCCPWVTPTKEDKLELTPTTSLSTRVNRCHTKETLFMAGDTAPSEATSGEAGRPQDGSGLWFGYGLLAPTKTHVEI
- protocol.text: Test for binding to human NK2 receptor
Structures can show the parent of a compound that is named as a salt.
Give the value, in units of nM, as a plain number.

Answered cases to consult:
Memo: CN(CCN1CCC(OC(=O)Nc2ccccc2-c2ccccc2)CC1)C(=O)CCCN(C)c1ccc(C(=O)N(C)CCCN(C)C(=O)CO[C@H]2Cc3ccccc3C23CCN(CC[C@@]2(c4ccc(F)cc4)CN(C(=O)c4cc(C(F)(F)F)cc(C(F)(F)F)c4)CO2)CC3)cc1 [Example 36, trihydrochloride] , reported Ki: 0.96

Memo: Cc1nc(N(C)CCCCCC(=O)N(C)CCN2CCC(OC(=O)Nc3ccccc3-c3ccccc3)CC2)sc1C(=O)N(C)CCN(C)C(=O)CO[C@H]1Cc2ccccc2C12CCN(CC[C@@]1(c3ccc(F)cc3)CN(C(=O)c3cc(C(F)(F)F)cc(C(F)(F)F)c3)CO1)CC2 [Example 108, trihydrochloride] , reported Ki: 0.79

Memo: Cc1cc(NCCCCCC(=O)N(C)CCN2CCC(OC(=O)Nc3ccccc3-c3ccccc3)CC2)sc1C(=O)N(C)CCCN(C)C(=O)CO[C@H]1Cc2ccccc2C12CCN(CC[C@@]1(c3ccc(F)cc3)CN(C(=O)c3cc(C(F)(F)F)cc(C(F)(F)F)c3)CO1)CC2 [Example 30, trihydrochloride] , reported Ki: 0.71

Please examine the following record next.
Memo: CN(CCN1CCC(OC(=O)Nc2ccccc2-c2ccccc2)CC1)C(=O)CCCCCNc1ccc(C(=O)N2CCCN(C(=O)CO[C@H]3Cc4ccccc4C34CCN(CC[C@@]3(c5ccc(F)cc5)CN(C(=O)c5cc(C(F)(F)F)cc(C(F)(F)F)c5)CO3)CC4)CC2)cc1 [Example 110, trihydrochloride] , reported Ki: 0.6

---

- target.or.system: human M3 receptor (Homo sapiens, UniProt P20309)
- Construct: expressed in transfected cells; host or cells: CHO cells
- Sequence (P20309 whole entry): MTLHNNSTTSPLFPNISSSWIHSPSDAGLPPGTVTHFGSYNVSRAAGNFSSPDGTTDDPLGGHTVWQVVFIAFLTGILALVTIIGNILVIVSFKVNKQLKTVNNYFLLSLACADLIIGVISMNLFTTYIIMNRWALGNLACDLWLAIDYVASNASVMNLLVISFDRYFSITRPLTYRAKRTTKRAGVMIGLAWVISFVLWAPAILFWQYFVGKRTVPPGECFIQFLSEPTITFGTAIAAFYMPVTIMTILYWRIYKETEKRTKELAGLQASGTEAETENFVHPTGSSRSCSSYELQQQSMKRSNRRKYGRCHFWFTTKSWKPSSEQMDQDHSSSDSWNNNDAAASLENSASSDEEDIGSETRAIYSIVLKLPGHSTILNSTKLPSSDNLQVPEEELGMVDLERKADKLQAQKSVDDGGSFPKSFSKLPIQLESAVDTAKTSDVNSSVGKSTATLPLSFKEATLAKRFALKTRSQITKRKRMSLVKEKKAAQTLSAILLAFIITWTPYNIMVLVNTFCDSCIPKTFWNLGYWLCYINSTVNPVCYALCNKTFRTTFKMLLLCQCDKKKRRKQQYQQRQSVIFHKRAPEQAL
- protocol.text: Test for binding to human M3 receptor
- stated.conditions: CHO cells expressing human M3 receptor, [N-methyl-3H]-(-)-Scopolamine methyl chloride 0.5 nM; Ki from IC50 and Kd; read-out: Ki
Structures can show the parent of a compound that is named as a salt.
Catalogue of compounds with associated Ki
Give the value, in units of nM, as a plain number.

Memo: `CN(CCN1CCC(OC(=O)Nc2ccccc2-c2ccccc2)CC1)C(=O)CCCCCNCc1ccc(C(=O)N(C)CCCN(C)C(=O)CO[C@H]2Cc3ccccc3C23CCN(CC[C@@]2(c4ccc(F)cc4)CN(C(=O)c4cc(C(F)(F)F)cc(C(F)(F)F)c4)CO2)CC3)s1` , reported Ki: 1.4

Memo: CN(CCN1CCC(OC(=O)Nc2ccccc2-c2ccccc2)CC1)C(=O)CCCC1CCN(c2ccc(C(=O)N(C)CCCN(C)C(=O)CO[C@H]3Cc4ccccc4C34CCN(CC[C@@]3(c5ccc(F)cc5)CN(C(=O)c5cc(C(F)(F)F)cc(C(F)(F)F)c5)CO3)CC4)cc2)CC1 [Example 66, trihydrochloride] , reported Ki: 1.5

Memo: `CN(CCN1CCC(OC(=O)Nc2ccccc2-c2ccccc2)CC1)C(=O)CCCCCNCc1ccc(C(=O)N(C)CCCN(C)C(=O)CO[C@H]2Cc3ccccc3C23CCN(CC[C@@]2(c4ccc(F)cc4)CN(C(=O)c4cc(C(F)(F)F)cc(C(F)(F)F)c4)CO2)CC3)nc1` , reported Ki: 0.9

Memo: CN(CCN1CCC(OC(=O)Nc2ccccc2-c2ccccc2)CC1)C(=O)CCCCCCNc1ccc(C(=O)N(C)CCCN(C)C(=O)CO[C@H]2Cc3ccccc3C23CCN(CC[C@@]2(c4ccc(F)cc4)CN(C(=O)c4cc(C(F)(F)F)cc(C(F)(F)F)c4)CO2)CC3)cc1.Cl.Cl.Cl [Example 39, trihydrochloride] , reported Ki: 1.4

Memo: `Cc1cc(NCCCCCC(=O)N(C)CCN2CCC(OC(=O)Nc3ccccc3-c3ccccc3)CC2)sc1C(=O)N(C)CCN(C)C(=O)CO[C@H]1Cc2ccccc2C12CCN(CC[C@@]1(c3ccc(F)cc3)CN(C(=O)c3cc(C(F)(F)F)cc(C(F)(F)F)c3)CO1)CC2` , reported Ki: 1.2

Memo: CN(CCN1CCC(OC(=O)Nc2ccccc2-c2ccccc2)CC1)C(=O)CCOCCNc1ccc(C(=O)N(C)CCCN(C)C(=O)CO[C@H]2Cc3ccccc3C23CCN(CC[C@@]2(c4ccc(F)cc4)CN(C(=O)c4cc(C(F)(F)F)cc(C(F)(F)F)c4)CO2)CC3)cc1 [Example 29, trihydrochloride] , reported Ki: 1.7

Memo: `CN(CCN1CCC(OC(=O)Nc2ccccc2-c2ccccc2)CC1)C(=O)CCCCCNc1ccc(C(=O)N(C)CCCN(C)C(=O)CO[C@H]2Cc3ccccc3C23CCN(CC[C@@]2(c4ccc(F)cc4)CN(C(=O)c4cc(C(F)(F)F)cc(C(F)(F)F)c4)CO2)CC3)cc1` , reported Ki: 1.6

Memo: `CN(CCN1CCC(OC(=O)Nc2ccccc2-c2ccccc2)CC1)C(=O)CCCCCNc1ccc(C(=O)N(C)CCN(C)C(=O)CO[C@H]2Cc3ccccc3C23CCN(CC[C@@]2(c4ccc(F)cc4)CN(C(=O)c4cc(C(F)(F)F)cc(C(F)(F)F)c4)CO2)CC3)cc1` , reported Ki: 1.2

Please examine the following record next.
Memo: `CN(CCN1CCC(OC(=O)Nc2ccccc2-c2ccccc2)CC1)C(=O)CCCCCNc1ccc(C(=O)N(C)CCCN(C)C(=O)CO[C@H]2Cc3ccccc3C23CCN(CC[C@@]2(c4ccc(F)cc4)CN(C(=O)c4cc(C(F)(F)F)cc(C(F)(F)F)c4)CO2)CC3)nc1` , reported Ki: 1.3

All figures here come from patent US8476253B2.
